experiment: Pharmacokinetics study in rats, intravenous; assay type: in vivo, SD rats; details: male, SD, rat, in vivo, iv, 10 mg/kg
Readout Name: AUC(0-inf)
Write the numeric value and follow it with the unit.

# input For COc1cc(F)cc(OCCCN)c1-c1cc(Nc2cnc(C#N)cn2)n[nH]1 , what is its reported AUC(0-inf)?
# output 4640 ng·h/mL

----------
List of AUC(0-t) values.
experiment: Pharmacokinetics study in rats, intravenous; type: in vivo, SD rats; details: male, SD, plasma; rat, IV, 10 mg/kg; read-out: AUC0-t
Numeric answer only, unit ng·h/mL assumed.

As a guide, the following entries are already answered.
{"Compound": "COc1cc(Cl)cc(OCC2(CN)CC2)c1-c1cc(Nc2cnc(C#N)cn2)n[nH]1 [Compound 14]", "Unit Of Measurement": "ng·h/mL", "Assay Value": 3100}
{"Compound": "COc1cc(Br)cc(OCC2(CN)CC2)c1-c1cc(Nc2cnc(C#N)cn2)n[nH]1 [Compound 15]", "Unit Of Measurement": "ng·h/mL", "Assay Value": 4890}
{"Compound": "COc1cc(Cl)cc(OCCCN)c1-c1cc(Nc2cnc(C#N)cn2)n[nH]1 [Compound 4]", "Unit Of Measurement": "ng·h/mL", "Assay Value": 2390}

// below: AUC(0-t) requested for another compound
# input For COc1cc(Br)cc(OCCCN)c1-c1cc(Nc2cnc(C#N)cn2)n[nH]1 [Compound 5] , what is its reported AUC(0-t)?
# output 2960

----------
assay: in vivo; design: species or system Balb/c nude mice; settings: female, Balb/c nude, mouse, iv, 40 mg/kg
Readout Name: Kp

# input For COc1cc(F)cc(OCCCN)c1-c1cc(Nc2cnc(C#N)cn2)n[nH]1 , what is its reported Kp?
# output ~6

----------
assay: Pharmacokinetics study in rats, intravenous; type: in vivo, SD rats; conditions: male, SD, plasma; rat, IV, 5 mg/kg; read-out: AUC0-inf
Readout Name: AUC(0-inf) (ng·h/mL)
Numeric answer only, unit ng·h/mL assumed.

# input For COc1cccc(OCCCN)c1-c1cc(Nc2cnc(C#N)cn2)n[nH]1 [LY-2606368, reference compound] , what is its reported AUC(0-inf)?
# output 637

----------
assay: Pharmacokinetics study in rats, intravenous; assay type: in vivo, SD rats; conditions: male, SD, plasma; rat, IV, 5 mg/kg; read-out: t½ (converted)
Readout Name: half-life
Write the numeric value and follow it with the unit.

# input For COc1cccc(OCCCN)c1-c1cc(Nc2cnc(C#N)cn2)n[nH]1 [LY-2606368, reference compound] , what is its reported half-life?
# output 1.3 h
